- assay remarks: Oral bioavailability in rat at 100 umol/kg, […]
- Type: ADME, organism-based
- condition description: in vivo
property: bioavailability (%)
Give the number; % is assumed, so skip it.

Reported bioavailability for Cc1cnc(CN(CCCCN)[C@H]2CCCc3cccnc32)c(C)c1 : what is it? 42

====

Listing of recorded CC50 by entry.
- assay remarks: Cytotoxicity against human MT4 cells expressing CD4 and CXCR4 assessed as cell viability
- Format: cell-based
Give the number; µM is assumed, so skip it.

>  <compound>
NCCCCN(Cc1ncccc1N)C1CCCc2cccnc21 (racemic)

>  <CC50 / µM>
169

$$$$
>  <compound>
CC(C)c1cccnc1CN(CCCCN)Cc1nc2ccccc2[nH]1

>  <CC50 / µM>
145

$$$$

Reported CC50 for Cc1ccnc(C(C)N(CCCCN)Cc2ncccc2C)c1 (racemic) : what is it? 138

Reported CC50 for NCCCCN(Cc1ccccn1)Cc1nc2ccccc2[nH]1 : what is it? 151

Reported CC50 for NCCCCN(Cc1ncccc1O)C1CCCc2cccnc21 (racemic) : what is it? 149

Reported CC50 for Cc1ccc(CN(CCCCN)C(C)c2ccccn2)nc1 (racemic) : what is it? 158

Reported CC50 for Cc1ccc(CN(CCCCN)C2CCCc3cccnc32)nc1 (racemic) : what is it? 35.3

====

- assay remarks: AUC (0 to infinity) in rat
- Type: ADME, organism-based
- Set-up: time infinity; concentration or dose not given beside the values
- condition description: plasma
Label rule, in plain words: AUC(0-inf) of 9 µM·h and up is true, under 9 µM·h is false.

Study these solved cases before continuing.
>  <given smiles>
Cc1cccnc1CN(CCCCN)[C@@H](C)c1ccccn1

>  <answer label>
true

$$$$
>  <given smiles>
C[C@@H](c1ccccn1)N(CCCCN)Cc1nc2ccccc2[nH]1

>  <answer label>
false

$$$$

Query compound follows.
Test whether the compound Cc1cnc(CN(CCCCN)[C@H]2CCCc3cccnc32)c(C)c1 records AUC(0-inf) of 9 µM·h or higher. true

====

- target entity: C-X-C chemokine receptor type 4 (Homo sapiens, UniProt P61073)
- Sequence (P61073 whole entry): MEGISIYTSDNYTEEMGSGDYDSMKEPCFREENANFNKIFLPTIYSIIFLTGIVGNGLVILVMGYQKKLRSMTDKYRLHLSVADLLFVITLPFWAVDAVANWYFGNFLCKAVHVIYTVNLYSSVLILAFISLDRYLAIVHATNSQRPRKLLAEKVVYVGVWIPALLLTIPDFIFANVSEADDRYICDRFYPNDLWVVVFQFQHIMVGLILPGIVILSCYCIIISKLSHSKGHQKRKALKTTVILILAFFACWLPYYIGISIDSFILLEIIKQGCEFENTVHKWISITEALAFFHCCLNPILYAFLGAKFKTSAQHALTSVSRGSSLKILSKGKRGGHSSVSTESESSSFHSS
- assay remarks: Displacement of [125I]SDF-1alpha from CXCR4 in human CEM-CCRF cells by liquid scintillation counting
- Assay type: cell-based
property: IC50

Checklist item: IC50 tested on C-X-C chemokine receptor type 4 (Homo sapiens, UniProt P61073), entry Cc1cnc(CN(CCCCN)[C@H]2CCCc3cccnc32)c(C)c1 , value? 62.9 nM

====

Listing of recorded log10(IC50) by entry.
- Test system: Human immunodeficiency virus 1
- assay remarks: Antiviral activity against X4 tropic HIV1 NL4.3 infected in CD4 and CXCR4 expressing human MT4 cells assessed as inhibition of viral cytopathicity
- Type: functional, organism-based
- condition description: Human immunodeficiency virus 1, NL4.3, MT4
A value of 2 here means IC50 of 100 in nM, since values are log10.

Study these solved cases before continuing.
>  <compound>
CCC(c1ccccn1)N(CCCCN)Cc1nc2ccccc2[nH]1 (centres undefined)

>  <log10(IC50)>
2.94

$$$$
>  <compound>
Cc1cccnc1CN(CCCCN)C1CCCc2cccnc21 (racemic)

>  <log10(IC50)>
1.37

$$$$
>  <compound>
Cc1cccnc1CN(CCCCN)C(C)c1ccccn1 (centres undefined)

>  <log10(IC50)>
0.04

$$$$
>  <compound>
C[C@@H](c1ccccn1)N(CCCCN)Cc1nc2ccccc2[nH]1

>  <log10(IC50)>
0.15

$$$$
>  <compound>
Cc1ccc(CN(CCCCN)C2CCCc3cccnc32)nc1 (racemic)

>  <log10(IC50)>
0.72

$$$$

Reported log10(IC50) for NCCCCN(Cc1ncccc1Cl)C1CCCc2cccnc21 (centres undefined) : what is it? -0.40

Reported log10(IC50) for NCCCCN(Cc1ncccc1CO)C1CCCc2cccnc21 (racemic) : what is it? 0.32

Reported log10(IC50) for Cc1cccc(C(C)N(CCCCN)Cc2nc3ccccc3[nH]2)n1 (centres undefined) : what is it? 3.61

Recorded values, source ChEMBL document CHEMBL1681661.
